This collection of values is drawn from PubChem BioAssay (NCI).

system: HT29 colon; assay: NCI-60 one-dose screen, 48 h; conditions: 10 µM unless noted
Compounds without any hit were thinned out: in the full panel of roughly 83,000, 20% have a hit. Calls of active or inactive are those of the source. Rule for the calls: active = growth percent below 10; inactive = the rest.
Field 'call' accepts active, inactive

Tell me the recorded outcome of this test for "CCOCC(O)(c1ccc(Cl)cc1)c1ccc(Cl)cc1" .
inactive

Now consider "C=CCn1c(SCC(=O)Nc2ccc(C(=O)/C=C/c3ccccc3)cc2)nnc1-c1ccc(OC)c(OC)c1" .
inactive

Now consider CC(C)N=C1CCCC1C(=S)SSC(=S)C1CCCC1=NC(C)C (stereo unspecified) .
inactive

* * *

test system: NCI-H226 lung; assay: NCI-60 one-dose screen, 48 h (100 = growth as untreated, 0 = no growth, -100 = all killed); conditions: 10 µM unless noted
Compounds without any hit were thinned out: in the full panel of roughly 83,000, 20% have a hit.
Measured growth, listed per entry.
Write it as a number; the unit % goes unstated.

Field: example entries. Status: answers known.
[[record]]
smiles_record = "CCCCCCCCCCCCCCCCCC1=NC(C)(C)CN1C(C)(C)CO"
value_reported = 22.9

[[record]]
smiles_record = "COc1ccc(/C(=C\\c2cc(OC)c(OC)c(OC)c2)C(=O)N2CCN(c3ccccc3)CC2)cc1O"
value_reported = 98.8

[[record]]
smiles_record = "CCOC(=O)c1ccc(NCCC(=O)O)cc1"
value_reported = 100

[[record]]
smiles_record = "Cc1nn(-c2ccc(Cl)cc2)c(=O)n1CCN1CCOCC1"
value_reported = 79.4


// lookup growth | system=NCI-H226 lung | key= "COCCn1c(Nc2ccc(C(=O)NO)cc2)nc2ccccc21"
89.6

* * *

system: CCRF-CEM leukemia; assay: NCI-60 one-dose screen, 48 h (100 = growth as untreated, 0 = no growth, -100 = all killed); conditions: 10 µM unless noted
The panel holds about 83,000 compounds, 20% with a hit somewhere; the sample as a whole holds those more often.
Observed property: growth (%)
Write it as a number; the unit % goes unstated.

Field: example entries. Status: answers known.
[[record]]
compound = "FC1(F)CCN(Cc2c[nH]c3cc(Cl)ccc23)C[C@H]1CCc1ccccc1"
test_target = "CCRF-CEM leukemia"
value_reported = 45.9

[[record]]
compound = "COc1ccc(C2C=C(c3ccc(Cl)cc3)N=C3SC=CN32)cc1 (stereo not drawn)"
test_target = "CCRF-CEM leukemia"
value_reported = 88.2

[[record]]
compound = "CN(CCO)c1ccc(N2Cc3ccccc3OC3=C2C(=O)c2c(O)ccc(O)c2C3=O)cn1"
test_target = "CCRF-CEM leukemia"
value_reported = -12.2

[[record]]
compound = "Clc1ncnc2scc(C3COc4ccccc4O3)c12 (stereo not drawn)"
test_target = "CCRF-CEM leukemia"
value_reported = 22.3

[[record]]
compound = "Cc1ccc(NC(=O)Cn2nncc2CN2C(=O)CSC2=O)cc1C"
test_target = "CCRF-CEM leukemia"
value_reported = 106


// lookup growth | system=CCRF-CEM leukemia | key= CCc1ccc2c(c1)N(CCO)C1=C(C(=O)OC1)C2c1cccc(Cl)c1 (stereo not drawn)
10.5

Now consider "Oc1[nH]c2ccc(Cl)cc2c1/C=c1/ccc2c(c1)N=C(c1ccc(F)cc1)N=2" .
7.83

Now consider N#Cc1c(N)n(C2OC(CO)C(O)C2O)c2ncnc(N)c12 (stereo not drawn) .
-45.1

Now consider "CC(=O)c1c(C)nc(-c2cc(C)cc(Cl)c2)nc1-c1cccc(Oc2ccccc2)c1" .
32.5

Now consider "CN1CCN(c2ccc(N3Cc4ccccc4OC4=C3C(=O)c3c(O)ccc(O)c3C4=O)cn2)CC1" .
-12.7

Now consider COC1=CC(c2ccc[nH]2)=N/C1=C\c1[nH]c(C)c(C(=O)CCCCCCCCC(=O)O[C@H]2CC[C@H]3C4CCc5cc(O)ccc5C4CC[C@]23C)c1C (stereo partly drawn) .
11.5

Now consider "COc1ccc2[nH]cc(/C=C3\C(=O)Nc4ccccc43)c2c1" .
14

* * *

tested on: SK-OV-3 ovarian; assay: NCI-60 one-dose screen, 48 h; settings: 10 µM unless noted
About 83,000 compounds went through this panel and 20% of them were active in at least one assay; those are over-represented in the sample as a whole. The source made the active and inactive calls. The calls were made as follows: active = growth percent below 10; inactive = the rest.
Field 'call' accepts active, inactive

[[record]]
compound = "COc1ccc(/C(=C\\c2cc(OC)c(OC)c(OC)c2)C(=O)N2CCNCC2)cc1"
cat = "inactive"


Tell me the recorded outcome of this test for "COc1cc(C(=O)/C=C/c2cn(-c3ccccc3)nc2-c2cccc(Nc3ccnc4cc(Cl)ccc34)c2)cc(OC)c1OC" .
inactive

Now consider CC1(C)C(N(O)C(=O)Nc2ccc(Cl)cc2)N(c2ccc(Cl)cc2)C(=O)N1CC(=O)N/N=C/C=C/c1ccc([N+](=O)[O-])o1 (configuration not stated) .
inactive

Now consider "Cc1ccc(O)c(Cc2ccccc2)c1" .
inactive

Now consider "Nc1nc(N)c2cc(CNc3ccc(Cl)c(Cl)c3)ccc2n1" .
inactive

Now consider "Clc1ccc(-c2nc(Br)cn3ccnc23)cc1" .
inactive

Now consider "O=C(Nc1cnc(C(F)(F)F)cn1)c1cc(Cl)ccc1O" .
active

Now consider "Cc1ccc(-c2cnc3sc4ccc(Cl)cc4n23)cc1" .
inactive

Now consider CC1=C(C(=O)Nc2ccc(F)cc2)C(c2ccc(Cl)cc2)C2=C(CC(C)(C)CC2=O)N1 (configuration not stated) .
inactive

* * *

test system: RPMI-8226 leukemia; test: NCI-60 one-dose screen, 48 h (100 = growth as untreated, 0 = no growth, -100 = all killed); conditions: 10 µM unless noted
Compounds without any hit were thinned out: in the full panel of roughly 83,000, 20% have a hit.
Assign class by growth: not lower than 80% means condition met; lower than 80% means condition not met.

// inclusive: growth at least 80%? input: "COc1ccccc1NC(=O)OCC12COCN1COC2"
condition met

Now consider "C=CCOc1c(Br)cc(Br)cc1Br" .
condition not met

Now consider "COc1ccc(Sc2[nH]c(C=O)c3ccccc23)cc1" .
condition not met

Now consider "Cc1ccc(N2C3c4ccccc4N(S(=O)(=O)c4ccc(C)cc4)C2c2ccccc2N3S(=O)(=O)c2ccc(C)cc2)cc1" .
condition met

Now consider CCOC(CN1CCN(CC(C)C(=O)c2ccccc2)CC1)c1ccccc1 (stereo not drawn) .
condition met

Now consider "COc1cc(C(=O)/C=C/c2cn(-c3ccccc3)nc2-c2cccc(Nc3ccnc4cc(Cl)ccc34)c2)cc(OC)c1OC" .
condition not met

Now consider "CNC(=O)c1ccccc1Sc1ccc2c(/C=C/c3ccccn3)n[nH]c2c1" .
condition not met

Now consider "NC(N)=N/N=C\c1ccc(OCc2ccccc2)cc1" .
condition met

* * *

System: OVCAR-5 ovarian
Test: NCI-60 one-dose screen, 48 h
Conditions: 10 µM unless noted
Protocol: Growth inhibition of the OVCAR-5 human tumor cell line is measured as a screen for anti-cancer activity. Cells are grown in 96 well plates and exposed to the test compound for 48 hours. Compounds are tested at a single concentration, which is 10^-5 M for most compounds. The reported endpoint is percent growth (GI% or GIPRCNT), where numbers from 0 - 100% represent growth inhibition, and numbers from -100% - 0 represent cell death. For example, a value of 40 represents 60% growth inhibition. […]
Compounds without any hit were thinned out: in the full panel of roughly 83,000, 20% have a hit. Calls of active or inactive are those of the source. How the source made its calls: active means growth percent below 10; inactive means the rest.
Field 'call' accepts active, inactive

# count of solved cases: 5
[[record]]
compound = "COc1ccc(-c2nsc3c2NC(=O)CC3c2ccc3c(c2)OCO3)cc1 (centres undefined)"
cat = "inactive"

[[record]]
compound = "C/C=C(\\C)C(C(=O)NC1CCCCC1)N(C(=O)C1CCc2cc(F)ccc2O1)c1ccc([N+](=O)[O-])cc1 (centres undefined)"
cat = "inactive"

[[record]]
compound = "CC(=O)c1ccc(-n2c(-c3cc(-c4ccsc4)n[nH]3)n[nH]c2=S)cc1"
cat = "inactive"

[[record]]
compound = "Cc1cc(C#Cc2ccccc2)ccc1-n1c(/C=C/c2ccc(F)cc2)nc2ccccc2c1=O"
cat = "inactive"

[[record]]
compound = "COc1cc(/C=C/C(=O)c2c(C)nc3ccccc3c2C)ccc1OCCCOc1cc2c(cc1OC)C(=O)N1CCC[C@H]1C=N2"
cat = "active"


From here, focus on the item given below.
Tell me the recorded outcome of this test for "Cc1cc(C)c2c(n1)sc1c(Nc3ccc(O)cc3)ncnc12" .
inactive

* * *

system: RXF 393 renal; assay: NCI-60 one-dose screen, 48 h (100 = growth as untreated, 0 = no growth, -100 = all killed); settings: 10 µM unless noted
This is part of a sample that, as a whole, favours compounds with a hit. Of some 83,000 tested, about 20% had one in any assay.
Measured growth, listed per entry.
Write it as a number; the unit % goes unstated.

Field: example entries. Status: answers known.
[[record]]
molecule = "C#CC[C@@H]1C[C@]2(C)[C@H]3CC=C4[C@H]5CC(C)(C)CC[C@]5(C(=O)NCCCCN)CC[C@@]4(C)[C@]3(C)CC[C@H]2C(C)(C)[C@H]1OC(C)=O"
observed_property = "growth"
value_reported = -43.3

[[record]]
molecule = "C=CCOc1c(Br)cc(Br)cc1Br"
observed_property = "growth"
value_reported = 76.9

[[record]]
molecule = "COc1ccc(C2C3CCc4ccccc4C3=NN2C(=O)c2cc(OC)c(OC)c(OC)c2)cc1O (stereo not drawn)"
observed_property = "growth"
value_reported = 56.8

[[record]]
molecule = "COc1ccc2c(c1)N(CCO)C1=C(C(=O)OC1)C2c1cccc(Br)c1 (stereo not drawn)"
observed_property = "growth"
value_reported = 44.4

[[record]]
molecule = "COc1ccc(-c2nsc3c2NC(=O)CC3c2ccc3c(c2)OCO3)cc1 (stereo not drawn)"
observed_property = "growth"
value_reported = 11.3

[[record]]
molecule = "C#CC[C@@H]1C[C@]2(C)[C@H]3CC=C4[C@H]5[C@@H](C)[C@H](C)CC[C@]5(C(=O)NCCCN5CCN(CCCN)CC5)CC[C@@]4(C)[C@]3(C)CC[C@H]2C(C)(C)[C@H]1OC(C)=O"
observed_property = "growth"
value_reported = -82.1


// lookup growth | system=RXF 393 renal | key= "COc1cc(C)cc2oc3oc(=O)c(-c4csc(-c5cc6ccccc6oc5=O)n4)cc3c(=O)c12"
102

Now consider "CN(C)c1ccc(/C=N/Nc2nnc3n2N=C(c2ccc(Cl)cc2)CS3)cc1" .
69.7

Now consider "CN(C)c1ccc(Nc2c3ccccc3nc3ccccc23)cc1" .
21.6

Now consider "CC(C)NC(=O)OCC#CCOC(=O)NC(C)C" .
113

Now consider "COc1ccc(/C=C(/C(=O)N2CCN(c3ccccc3)CC2)c2cc(OC)c(OC)c(OC)c2)cc1O" .
20.4

Now consider "CN1CCN(Cc2ccc(NC(=O)c3cncc(C#Cc4cnc5cccnn45)c3)cc2C(F)(F)F)CC1" .
-56.3

Now consider "Cc1nc2ccc(Nc3nc(NCCN4CCOCC4)nc(Nc4ccc(F)cc4)n3)cc2n1Cc1ccccc1" .
12
